Experiment: Stability in rat plasma at 3.78 ug/kg, iv after 10.9 mins
Format: ADME, organism-based
Conditions: 0.00378 mg/kg, read-out: Stability
quantity measured: remaining at 0.181667 h (%)
Number only, in %; omit the unit.

Enquiry: State, in one line, measured remaining at 0.181667 h of COc1ccc(OC)c(CN(C(=O)C[18F])c2ccccc2Oc2ccccc2)c1
Return: 37.6

----------
Test: Drug level in rat brain assessed as unchanged drug level at >1.39 Ci/umol, iv after 60 mins
Format: ADME, organism-based
Details: read-out: Drug uptake
quantity measured: remaining at 1 h (%)
Number only, in %; omit the unit.

Enquiry: State, in one line, measured remaining at 1 h of COc1ccc(OC)c(CN(C(=O)C[18F])c2ccccc2Oc2ccccc2)c1
Return: 32.6
